- TARGET_UNDER_TEST: T1, recombinant human CSF-1R (form not stated) (human, UniProt P07333 20-512, limits assumed)
- T1 construct: for the ELISA no species is stated; also called recombinant CSF-1R; recombinant CSF-1R protein
- TEST_METHOD_NOTES: BIAcore, humanisation stage, crude cell supernatant
Entries and their kon values follow.
Report the value in M⁻¹ s⁻¹ with no unit label.

Example results:
[[record]]
binder = "969gH2gL6 (antibody, human IgG4 S228P, kappa, name in Kabat numbering, V domains shown, Humanised IgG4 (S241P)/kappa; positions are Kabat; also called Ab969.g9) VH: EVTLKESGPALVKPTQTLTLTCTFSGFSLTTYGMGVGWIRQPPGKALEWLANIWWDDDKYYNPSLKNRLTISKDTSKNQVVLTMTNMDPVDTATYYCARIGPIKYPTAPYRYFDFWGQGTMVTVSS VL: DIQMTQSPSSLSASVGDRVTITCLASEDIYDNLAWYQKKPGKAPKLLIYYASSLQDGVPSRFSGSGSGTDFTLTISSLQPEDFATYYCLQDSEYPWTFGGGTKVEIKR"
unit_name = "M⁻¹ s⁻¹"
measured_value = "1.4e+06"

[[record]]
binder = "969gH1gL1 (antibody, human IgG4 S228P, kappa, name in Kabat numbering, V domains shown, Humanised IgG4 (S241P)/kappa; positions are Kabat; also called Ab969.g1) VH: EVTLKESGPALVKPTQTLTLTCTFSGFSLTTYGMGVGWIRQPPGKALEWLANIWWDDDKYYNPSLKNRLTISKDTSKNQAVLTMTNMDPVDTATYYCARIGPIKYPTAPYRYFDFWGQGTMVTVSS VL: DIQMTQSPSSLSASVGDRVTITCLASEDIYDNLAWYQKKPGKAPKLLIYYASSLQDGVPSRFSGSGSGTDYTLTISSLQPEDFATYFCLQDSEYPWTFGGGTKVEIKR"
unit_name = "M⁻¹ s⁻¹"
measured_value = "2.04e+06"

[[record]]
binder = "969gH2gL3 (antibody, human IgG4 S228P, kappa, name in Kabat numbering, V domains shown, Humanised IgG4 (S241P)/kappa; positions are Kabat) VH: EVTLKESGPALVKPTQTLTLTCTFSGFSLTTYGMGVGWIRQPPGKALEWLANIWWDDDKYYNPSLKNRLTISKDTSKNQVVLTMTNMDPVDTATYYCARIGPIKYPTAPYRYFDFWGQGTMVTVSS VL: DIQMTQSPSSLSASVGDRVTITCLASEDIYDNLAWYQKKPGKAPKLLIYYASSLQDGVPSRFSGSGSGTDFTLTISSLQPEDFATYFCLQDSEYPWTFGGGTKVEIKR"
unit_name = "M⁻¹ s⁻¹"
measured_value = "2.12e+06"

[[record]]
binder = "969gH2gL8 (antibody, human IgG4 S228P, kappa, name in Kabat numbering, V domains shown, Humanised IgG4 (S241P)/kappa, no donor residues; position is Kabat; also called Ab969.g4) VH: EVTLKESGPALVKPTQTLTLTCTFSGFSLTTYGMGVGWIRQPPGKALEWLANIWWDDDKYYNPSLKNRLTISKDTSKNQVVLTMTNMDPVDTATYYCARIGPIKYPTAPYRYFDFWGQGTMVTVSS VL: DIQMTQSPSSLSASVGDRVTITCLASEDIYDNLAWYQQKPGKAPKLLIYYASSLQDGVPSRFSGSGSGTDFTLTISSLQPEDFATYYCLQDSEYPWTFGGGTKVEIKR"
unit_name = "M⁻¹ s⁻¹"
measured_value = "1.23e+06"

[[record]]
binder = "969gH2gL4 (antibody, human IgG4 S228P, kappa, name in Kabat numbering, V domains shown, Humanised IgG4 (S241P)/kappa; positions are Kabat; also called Ab969.g7) VH: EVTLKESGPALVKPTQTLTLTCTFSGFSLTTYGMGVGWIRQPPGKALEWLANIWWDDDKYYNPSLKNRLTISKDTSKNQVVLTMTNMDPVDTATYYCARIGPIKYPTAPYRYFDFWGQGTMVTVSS VL: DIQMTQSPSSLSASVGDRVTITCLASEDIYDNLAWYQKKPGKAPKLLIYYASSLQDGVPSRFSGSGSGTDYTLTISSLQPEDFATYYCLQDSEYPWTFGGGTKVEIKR"
unit_name = "M⁻¹ s⁻¹"
measured_value = "2.2e+06"


input: If you can, please state the reported kon value of 969gH1gL7 (antibody, human IgG4 S228P, kappa, name in Kabat numbering, V domains shown, Humanised IgG4 (S241P)/kappa; position is Kabat) VH: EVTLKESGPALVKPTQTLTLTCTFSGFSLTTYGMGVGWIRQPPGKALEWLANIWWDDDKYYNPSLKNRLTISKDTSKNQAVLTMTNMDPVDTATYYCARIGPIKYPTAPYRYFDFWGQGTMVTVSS VL: DIQMTQSPSSLSASVGDRVTITCLASEDIYDNLAWYQQKPGKAPKLLIYYASSLQDGVPSRFSGSGSGTDYTLTISSLQPEDFATYYCLQDSEYPWTFGGGTKVEIKR .
output: 1.5e+06

input: If you can, please state the reported kon value of 969gH1gL2 (antibody, human IgG4 S228P, kappa, name in Kabat numbering, V domains shown, Humanised IgG4 (S241P)/kappa; positions are Kabat) VH: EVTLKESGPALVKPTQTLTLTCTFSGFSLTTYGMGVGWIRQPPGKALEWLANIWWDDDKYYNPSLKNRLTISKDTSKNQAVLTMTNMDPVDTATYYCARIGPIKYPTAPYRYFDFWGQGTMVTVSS VL: DIQMTQSPSSLSASVGDRVTITCLASEDIYDNLAWYQQKPGKAPKLLIYYASSLQDGVPSRFSGSGSGTDYTLTISSLQPEDFATYFCLQDSEYPWTFGGGTKVEIKR .
output: 1.46e+06
